Where do these numbers come from? They come from paper PMC6409716.

Molecular target: KV7.4 (Homo sapiens, UniProt P56696)
Construct: expressed in transfected cells; host or cells: HEK293T and CHO cells
Sequence (P56696 whole entry): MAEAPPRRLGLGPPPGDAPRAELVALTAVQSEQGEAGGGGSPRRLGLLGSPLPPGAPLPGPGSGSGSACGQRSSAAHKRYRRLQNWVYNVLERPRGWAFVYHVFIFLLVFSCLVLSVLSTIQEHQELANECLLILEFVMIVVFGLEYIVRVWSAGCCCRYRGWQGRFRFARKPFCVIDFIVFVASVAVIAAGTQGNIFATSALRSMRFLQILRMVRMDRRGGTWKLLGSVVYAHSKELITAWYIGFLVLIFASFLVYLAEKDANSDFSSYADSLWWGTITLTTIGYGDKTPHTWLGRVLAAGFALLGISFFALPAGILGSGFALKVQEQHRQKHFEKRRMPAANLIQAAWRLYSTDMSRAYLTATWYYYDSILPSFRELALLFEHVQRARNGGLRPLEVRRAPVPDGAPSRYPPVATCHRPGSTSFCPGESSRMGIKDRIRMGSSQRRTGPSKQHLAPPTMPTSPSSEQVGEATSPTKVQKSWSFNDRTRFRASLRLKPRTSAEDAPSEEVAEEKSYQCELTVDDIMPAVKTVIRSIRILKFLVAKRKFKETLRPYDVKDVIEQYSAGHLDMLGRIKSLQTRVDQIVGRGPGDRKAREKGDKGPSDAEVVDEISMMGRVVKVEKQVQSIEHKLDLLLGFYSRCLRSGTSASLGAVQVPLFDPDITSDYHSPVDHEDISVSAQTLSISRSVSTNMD
Assay: Whole-cell patch-clamp, KV7.4
Format: cell-based
Conditions: whole-cell recording, HEK293T and CHO cells transfected; 1000-ms depolarizing pulse of 10 mV from −80 mV; pH 7.3; room temperature; Hill fit; n = 5 cells
Bridges are numbered along the chain shown (N, C = ends). Where no end group is shown, it is not given here.
reportedMetric: pIC50
Hey, just a heads up that pIC50 is the negative log base 10 of the concentration in molar.

The recorded pIC50 for entry EVIKKDTPYKKRKFPYKSECLKACATSFTGGDESRIQEGKPGFFKCTCYFTTG (disulfide 20-46, 24-48) [SsTx, Ssm Spooky Toxin] equals 5.55
